Sourced from PubChem BioAssay (NCI)

Tested on: RPMI-8226 leukemia
Test: NCI-60 one-dose screen, 48 h (100 = growth as untreated, 0 = no growth, -100 = all killed)
Conditions: 10 µM unless noted
About 83,000 compounds went through this panel and 20% of them were active in at least one assay; those are over-represented in the sample as a whole.
MEASURED ATTRIBUTE: growth (%)
Value expressed in %; do not type the unit.

O=NN(CC(=O)NNc1ccccc1)CC(=O)NNc1ccccc1 = 55.4
COc1cc(C2Nc3ccccc3S2)cc(CN2CCOCC2)c1O (stereo unspecified) = 81.1
CC(=O)N(C)c1ccc(Nc2cc(C)[nH]c3ccc4ncnc4c23)cc1 = 56.2
COc1ccc(C2C3=C(COC3=O)N(CCO)c3cc(OC)c(OC)cc32)cc1 (stereo unspecified) = 96.1
C=CCN(CCOC(=O)c1ccc([N+](=O)[O-])cc1)CCOC(=O)c1ccc([N+](=O)[O-])cc1 = 94.3

I'd like to know its growth. The molecule in question is `COc1cc(C)cc2oc3oc(=O)c(-c4csc(-c5cc6ccccc6oc5=O)n4)cc3c(=O)c12`
109

Same question for C#CC[C@@H]1C[C@]2(C)[C@H]3CC[C@@H]4[C@H]5C(C(=C)C)CC[C@]5(C(=O)NCCCCN)CC[C@@]4(C)[C@]3(C)CC[C@H]2C(C)(C)[C@H]1OC(C)=O (stereo partly specified) please.
-39.1

* * *

A collection of molecules and their measured growth
System: PC-3 prostate
Test: NCI-60 one-dose screen, 48 h (100 = growth as untreated, 0 = no growth, -100 = all killed)
Details: 10 µM unless noted
The panel holds about 83,000 compounds, 20% with a hit somewhere; the sample as a whole holds those more often.
Value expressed in %; do not type the unit.

Consider the following illustrative entries.
CCOC(=O)c1sc2nc(-c3cc4ccccc4o3)cc(-c3ccc(Cl)cc3)c2c1N = 77
Clc1ccc(-c2nc(Br)cn3ccnc23)cc1 = 81.6
CCCCCCCCCCCCCCCCS(=O)(=O)Nc1cc(C(=O)NN)cc(C(=O)NN)c1 = 38.8
COc1cc(C2Nc3ccccc3S2)cc(CN2CCOCC2)c1O (stereo unspecified) = 82.1
CCOC(=O)C(Nc1ccccc1)C(=O)OCC = 88.1
CNCc1cccc2c1OCCOCCOCCC(C)S(=O)(=O)c1ccc(cc1)-c1cnc(N)c(n1)C(=O)N2 (stereo unspecified) = 32.3
Clc1ncnc2scc(C3COc4ccccc4O3)c12 (stereo unspecified) = 98.8
N=c1n(Cc2ccccc2)c(N)cc(=O)n1Cc1ccccc1 = 37.5
COc1ccc([C@@H]2[C@@H](Cl)C(=O)N2c2cc(OC)c(OC)c(OC)c2)cc1C = 28.9
CC(C)(C)c1ccc(Cn2c(-c3nonc3N)nc3ccccc32)cc1 = 67.4

I'd like to know its growth. The molecule in question is `CC(=O)N(C)c1ccc(Nc2cc(C)[nH]c3ccc4ncnc4c23)cc1`
50.5

Same question for `Fc1ccc(-c2nnc(N3CCOCC3)c3ccccc23)cc1` please.
95.8

Same question for `O=c1c2sc3ccccc3c2nnn1-c1ccc(F)c(Cl)c1` please.
54.8

Same question for `COc1ccc2nc(C)cc(Nc3ccccc3O)c2c1` please.
47.1

Same question for `COc1ccc(-c2nc(-c3cc(OC)cc(OC)c3)[nH]c2-c2ccc(OC)cc2)cc1` please.
27.5

Same question for COc1cc(C2CC(c3cccc(Nc4ccnc5cc(Cl)ccc45)c3)=NN2c2ccc(Cl)cc2)cc(OC)c1OC (stereo unspecified) please.
51

Same question for CCOC(=O)c1ccccc1SC(C[N+](=O)[O-])c1ccccc1 (stereo unspecified) please.
78

Same question for `C=CCn1c(C)nc2cc(Nc3nc(Nc4ccc5nc(C)n(CC=C)c5c4)nc4ccccc34)ccc21` please.
95.8

Same question for `Cc1cc(N=Nc2ccc(-c3ccc(N=Nc4ccc(O)c(C(=O)O)c4)cc3)cc2)c(N)c(N=Nc2ccc(C(=O)O)cc2)c1N` please.
78.1

Same question for `Cc1cc(Cl)c2ccc(N(C)C)cc2n1` please.
101

Same question for COc1cc(C2=NOC(c3cc(OC)c(OC)c(OC)c3)C2)ccc1OCCCCOc1cc2c(cc1OC)C(=O)N1CCC[C@H]1C=N2 (stereo partly specified) please.
-2.09
